Measured values drawn from PubChem BioAssay (NCATS) for this set.

- test.target: Tyrosine-protein phosphatase non-receptor type substrate 1 (Homo sapiens) + Leukocyte surface antigen CD47 (Homo sapiens) (UniProt P78324+Q08722)
- Sequence (P78324 whole entry, looked up): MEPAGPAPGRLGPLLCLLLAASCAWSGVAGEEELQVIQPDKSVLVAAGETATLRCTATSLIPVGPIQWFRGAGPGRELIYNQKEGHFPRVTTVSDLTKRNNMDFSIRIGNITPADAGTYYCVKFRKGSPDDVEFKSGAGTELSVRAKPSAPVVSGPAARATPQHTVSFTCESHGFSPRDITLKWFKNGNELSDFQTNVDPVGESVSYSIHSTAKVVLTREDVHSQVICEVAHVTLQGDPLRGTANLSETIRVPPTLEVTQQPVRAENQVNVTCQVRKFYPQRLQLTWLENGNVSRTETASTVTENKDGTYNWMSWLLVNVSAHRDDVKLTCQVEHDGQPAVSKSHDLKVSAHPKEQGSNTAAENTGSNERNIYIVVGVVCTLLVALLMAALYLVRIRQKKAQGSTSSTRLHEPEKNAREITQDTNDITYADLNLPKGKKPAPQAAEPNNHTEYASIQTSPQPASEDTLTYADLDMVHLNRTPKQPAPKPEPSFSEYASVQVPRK
- Sequence (Q08722 whole entry, looked up): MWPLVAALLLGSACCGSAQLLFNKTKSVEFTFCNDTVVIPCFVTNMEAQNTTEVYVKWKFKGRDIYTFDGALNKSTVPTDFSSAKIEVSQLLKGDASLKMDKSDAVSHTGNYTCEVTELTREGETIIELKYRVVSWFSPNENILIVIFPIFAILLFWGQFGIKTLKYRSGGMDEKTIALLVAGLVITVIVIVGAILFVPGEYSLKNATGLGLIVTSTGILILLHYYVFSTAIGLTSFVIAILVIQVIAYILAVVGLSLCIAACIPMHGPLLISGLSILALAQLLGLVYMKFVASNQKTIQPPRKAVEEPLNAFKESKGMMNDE
- assay: CD47-SIRPalpha protein protein interaction - Alpha assay qHTS validation (AID 1347059);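 also: bead proximity luminescence from CD47 binding SIRPalpha after compound preincubation with SIRPalpha; % is scaled to controls: 0 for no effect and ±100 for the full control effect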
- condition.summary: AlphaScreen CD47-His/biotin-SIRPalpha binding, LOPAC; series mostly up to 38.3 µM
Inconclusive results are not listed. Active and inactive are the calls of the source. Calls follow the shape of the dose curve; as a rule, active = well fitted inhibition curve with a large enough effect; inconclusive = small, poorly fitted or top-dose-only effect; inactive = flat fitted curve, though single readings scatter.
test.readout: outcome

Please review the following examples before continuing.
molecule: CC(C)(C)NCC(O)c1ccccc1Cl (stereo not drawn)
reported: inactive
--
molecule: CC(C)N(CCC(C(N)=O)(c1ccccc1)c1ccccn1)C(C)C (stereo not drawn)
reported: inactive
--
molecule: COc1ccc2c(c1OC)C(=O)O[C@H]2[C@@H]1c2cc3c(cc2CCN1C)OCO3
reported: inactive
--
molecule: CC(C)c1cccc(C(C)C)c1O
reported: inactive
--
molecule: O=P1(N(CCCl)CCCl)NCCCO1 (stereo not drawn)
reported: inactive
--
molecule: C=C(C)[C@H]1CN[C@H](C(=O)O)[C@H]1CC(=O)O
reported: inactive

# outcome of CCCCCN(C)CCC(O)(P(=O)(O)O)P(=O)(O)O = inactive

# outcome of CC(NC(C)(C)C)C(=O)c1cccc(Cl)c1 (stereo not drawn) = inactive

---

- assay: S16 Schwann cell PMP22 intronic element firefly luciferase assay (AID 624032);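 also: plate controls were DMSO for no effect and PTC124 positive control mean for full effect; nearly all actives have a fitted effect of over 30% in size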
- condition.summary: S16 rat Schwann cells, PMP22 element FLuc, 24 h; series mostly up to 57.5 µM
- Description: Charcot-Marie-Tooth-Association [CMTA] National Center for Advancing Translational Sciences [NCATS] […] The FLuc-expressing S16 cells were seeded in white solid 1536-well plates at between 500-750 cells/4uL in DMEM medium containing 10% FBS, w/o phenol red. […] Luminescence was measured on a ViewLux plate reader (Perkin Elmer). The % activity was determined by normalizing to the average readings of PTC124 (a positive control) - treated cells relative to DMSO-treated cells (0% Activity). […]
Results filed as inconclusive are left out. Activity calls are given as the source filed them. The call rests on the fitted dose curve; in most records, active means well fitted inhibition curve with a large enough effect; inconclusive means small, poorly fitted or top-dose-only effect; inactive means no such curve, though single readings can be large or run the other way.
Thanks in advance; please answer with one of these: active, inactive

[in] Look up the recorded call for CC(C)c1cccc(C(C)C)c1O in this test.
[out] inactive

[in] Look up the recorded call for CC(C)NC(C)C in this test.
[out] inactive

[in] Look up the recorded call for CCC(C)(C)c1ccc(O)cc1 in this test.
[out] inactive

---

- assay: qHTS Assay for Identifying Gametocytocidal Compounds (AID 743244);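 also: % is scaled to controls: 0 for no effect and ±100 for the full control effect; actives lower the fluorescent signal which means gametocytes are killed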
- condition.summary: P. falciparum 3D7 stage III-V gametocytes, alamarBlue, 72 h; active compounds read low
Results filed as inconclusive are left out.
Consider the following compounds and their measured max response readings.
Give a bare numeral; the unit % is implied.

compound: CN1C(=O)C(O)N=C(c2ccccc2)c2cc(Cl)ccc21 (stereo unspecified)
max response / %: 6.95
--
compound: [N-]=[N+]=CC(=O)OC[C@H](N)C(=O)O
max response / %: -0.674
--
compound: CN1C(=O)CC(=O)N(c2ccccc2)c2cc(Cl)ccc21
max response / %: 16.1

# max response of CN(C)CCc1c[nH]c2cccc(OP(=O)(O)O)c12 = 13

# max response of CN1CC[C@]23c4c5ccc(O)c4O[C@H]2[C@@H](O)CC[C@H]3[C@H]1C5 = 10.1

# max response of CCN[C@H](C)Cc1cccc(C(F)(F)F)c1 = 16.7

---

- Test system: CASKI
- assay: Primary qHTS to identify gynecologic anti-cancer compounds using libraries of approved drugs and bioactive compounds (AID 1345084); also: % is scaled to controls: 0 for no effect and ±100 for the full control effect; nearly all actives have a fitted effect of over 55% in size
- condition.summary: Gynecologic cancer cell panel viability, ATPlite luminescence, 48 h; series mostly up to 57.5 µM
Records with an inconclusive call do not appear. Calls of active or inactive are those of the source. The call rests on the fitted dose curve; in most records, active means well fitted cell-killing curve with a large enough effect; inconclusive means small, poorly fitted or top-dose-only effect, or effect the other way; inactive means flat fitted curve, though single readings scatter.
test.readout: outcome

compound: CCOC(=O)CC(SP(=S)(OC)OC)C(=O)OCC (centres undefined)
test.readout: outcome
reported: inactive
//
compound: CN1CC[C@]23c4c5ccc(O)c4O[C@H]2[C@@H](O)CC[C@H]3[C@H]1C5
test.readout: outcome
reported: inactive
//
compound: CC(C(=O)c1ccccc1)N(C)C (centres undefined)
test.readout: outcome
reported: inactive
//
compound: C[N+]1(CCF)[C@@H]2CC[C@H]1CC(OC(=O)C(O)(c1ccccc1)c1ccccc1)C2 (some centres undefined)
test.readout: outcome
reported: inactive
//
compound: CCN(CC)CCc1c[nH]c2ccccc12
test.readout: outcome
reported: inactive

For COc1c2c(cc3c1OCO3)CCN(C)C2 on CASKI, measured outcome was inactive

For C[C@]12CC[C@H]3[C@@H](CC[C@@]45O[C@H]4C(O)=C(C#N)C[C@]35C)[C@H]1CC[C@H]2O on CASKI, measured outcome was inactive

For O=C(O)c1ccc(=O)[nH]c1 on CASKI, measured outcome was inactive

For O=C1CN=C(c2ccccc2)c2cc([N+](=O)[O-])ccc2N1 on CASKI, measured outcome was inactive

For CC(C)(N)Cc1ccccc1Cl on CASKI, measured outcome was inactive

For COc1ccc2c(c1OC)C(=O)O[C@H]2[C@@H]1c2cc3c(cc2CCN1C)OCO3 on CASKI, measured outcome was inactive

For COc1ccc2c3c1O[C@H]1[C@H](O)CC[C@H]4[C@@H](C2)N(C)CC[C@@]341 on CASKI, measured outcome was inactive

For CCOP(=S)(OCC)Oc1ccc2c(C)c(Cl)c(=O)oc2c1 on CASKI, measured outcome was inactive

For CC(C)=CC1C(C(=O)OCN2C(=O)C3=C(CCCC3)C2=O)C1(C)C (centres undefined) on CASKI, measured outcome was inactive

For C[C@]12Cc3cn[nH]c3C[C@@H]1CC[C@@H]1[C@@H]2CC[C@@]2(C)[C@H]1CC[C@]2(C)O on CASKI, measured outcome was inactive

---

- test.target: Cytochrome P450 2C9 (Homo sapiens) (UniProt P11712)
- Sequence (P11712 whole entry, looked up): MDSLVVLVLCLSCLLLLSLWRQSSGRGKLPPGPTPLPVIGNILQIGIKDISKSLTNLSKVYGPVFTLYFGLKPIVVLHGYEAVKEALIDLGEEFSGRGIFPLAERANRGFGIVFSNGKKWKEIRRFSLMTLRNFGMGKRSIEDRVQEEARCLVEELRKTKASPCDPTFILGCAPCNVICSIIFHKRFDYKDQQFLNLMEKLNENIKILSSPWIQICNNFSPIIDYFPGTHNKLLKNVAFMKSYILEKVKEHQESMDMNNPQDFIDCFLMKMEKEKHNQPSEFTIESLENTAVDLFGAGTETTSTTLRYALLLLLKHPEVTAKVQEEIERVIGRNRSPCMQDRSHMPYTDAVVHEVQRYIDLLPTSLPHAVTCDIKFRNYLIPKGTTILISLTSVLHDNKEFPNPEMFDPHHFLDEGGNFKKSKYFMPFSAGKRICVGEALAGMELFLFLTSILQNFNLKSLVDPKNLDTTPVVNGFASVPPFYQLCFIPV
- assay: Cytochrome P450 family 2 subfamily C member 9 (CYP2C9) small molecule antagonists: luciferase biochemical (cell-free) qHTS assay (AID 1645842); also: nearly all actives have a fitted effect of over 55% in size
- condition.summary: P450-Glo CYP2C9 enzyme assay, luciferin luminescence; series mostly up to 57.4 µM
Results filed as inconclusive are left out. Calls of active or inactive are those of the source. The call rests on the fitted dose curve; in most records, active means well fitted inhibition curve with a large enough effect in the repeat runs; inconclusive means weak or mixed curves; inactive means no such curve, though single readings can be large or run the other way.
Thanks in advance; please answer with one of these: active, inactive

Example results:
molecule: CN1C(=O)NC(=O)C(C)(C2=CCCCC2)C1=O (stereo not given)
label.value: inactive

molecule: O=P1(N(CCCl)CCCl)NCCCO1 (stereo not given)
label.value: inactive

molecule: CCC1(c2ccc(N)cc2)CCC(=O)NC1=O (stereo not given)
label.value: inactive

molecule: O=C1c2ccccc2C(=O)C1C(=O)C(c1ccccc1)c1ccccc1
label.value: active

molecule: CCN[C@H](C)Cc1cccc(C(F)(F)F)c1
label.value: inactive

molecule: COC(=O)C(Cl)C(=O)OC
label.value: inactive

molecule: C[C@]12CC[C@H]3[C@@H](CCC4=CC(=O)CC[C@@H]43)[C@@H]1CC[C@@H]2OC(=O)CCC1CCCCC1
label.value: active

molecule: COP(=S)(OC)Oc1cc(Cl)c(Cl)cc1Cl
label.value: active

molecule: NNc1ccccc1
label.value: inactive

molecule: CCCOC(=O)c1cncn1C(C)c1ccccc1 (stereo not given)
label.value: active

[in] Look up the recorded call for COc1cccc2c1C(=O)c1c(O)c3c(c(O)c1C2=O)C[C@@](O)(C(=O)CO)CC3OC1CC(N2CCOC(OC)C2)C(O)C(C)O1 (stereo not given in full) in this test.
[out] active

[in] Look up the recorded call for CCC(C)C(C)(COC(N)=O)COC(N)=O (stereo not given) in this test.
[out] inactive

[in] Look up the recorded call for CC(=O)C1CCOC1=O (stereo not given) in this test.
[out] inactive

[in] Look up the recorded call for CC(C)c1c(CN(C)C(C)Cc2ccccc2)n(C)n(-c2ccccc2)c1=O (stereo not given) in this test.
[out] active

[in] Look up the recorded call for Oc1ccc(Cl)cc1 in this test.
[out] inactive

[in] Look up the recorded call for C=CCN1C[C@H](C)N([C@H](c2ccc(C(=O)N(CC)CC)cc2)c2cccc(OC)c2)C[C@H]1C in this test.
[out] inactive

[in] Look up the recorded call for CC(NC(C)(C)C)C(=O)c1cccc(Cl)c1 (stereo not given) in this test.
[out] inactive

[in] Look up the recorded call for CN1CCC(O)(c2ccc(F)cc2)C(C(=O)c2ccc(F)cc2)C1 (stereo not given) in this test.
[out] inactive

[in] Look up the recorded call for CCN[C@@H](C)Cc1cccc(C(F)(F)F)c1 in this test.
[out] inactive

[in] Look up the recorded call for CC(C)(N)Cc1ccccc1Cl in this test.
[out] inactive

[in] Look up the recorded call for CC(C)(C)NCC(O)c1ccccc1Cl (stereo not given) in this test.
[out] inactive

---

- assay: qHTS drug screen for cell cycle checkpoint inhibitors in PARPi-resistant BRCA-mutant ovarian cancer cell lines. (AID 1963452)
- condition.summary: PEO1/OlaR viability, CellTiter-Glo luminescence, 96 h; active compounds read low
test.readout: Z-AUC
Keep it simple and answer with nothing but the number.

Please review the following examples before continuing.
molecule: CN1C(=O)CCS(=O)(=O)C1c1ccc(Cl)cc1 (configuration not stated)
Z-AUC: 1.64

molecule: C[C@]12Cc3cn[nH]c3C[C@@H]1CC[C@@H]1[C@@H]2CC[C@@]2(C)[C@H]1CC[C@]2(C)O
Z-AUC: 1.25

molecule: O=C(O)CCCc1ccc(N(CCCl)CCCl)cc1
Z-AUC: 0.915

molecule: C[C@]12CC[C@@H]3c4ccc(OC(=O)N(CCCl)CCCl)cc4CC[C@H]3[C@@H]1CC[C@@H]2OP(=O)(O)O
Z-AUC: 0.291

# Z-AUC of CCC1(c2ccc(N)cc2)CCC(=O)NC1=O (configuration not stated) = 1.39

# Z-AUC of CN1C(=O)COc2c(C(=O)NC3CN4CCC3CC4)cc(Cl)cc21 (configuration not stated) = -0.165

# Z-AUC of CC(NC(C)(C)C)C(=O)c1cccc(Cl)c1 (configuration not stated) = -0.176
